Test system: Schistosoma mansoni schistosomula (Liberian)
Assay: drug effect (1 - score/DMSO control score) (fraction); higher = more antischistosomal effect, active = 0.5 or more; extreme values may be limits of the assay
Settings: 72 h; 10 µM
Pick one and only one: active, inactive

Some solved entries appear below for comparison.
| molecule | target-entity | label-class |
| --- | --- | --- |
| CO/N=C(\C(=O)OC)c1ccccc1CO/N=C(\C)c1cccc(C(F)(F)F)c1 | Schistosoma mansoni schistosomula (Liberian) | inactive |
| CC(C)(C)C(O)C(Oc1ccc(-c2ccccc2)cc1)n1cncn1 (stereo not given) | Schistosoma mansoni schistosomula (Liberian) | inactive |
| CCc1nn(C)c(C(=O)NCc2ccc(Oc3ccc(C)cc3)cc2)c1Cl | Schistosoma mansoni schistosomula (Liberian) | inactive |

Exercise: What did this assay record as the result for Cc1cc(C2=NOC(c3cc(Cl)c(F)c(Cl)c3)(C(F)(F)F)C2)ccc1C(=O)NCc1ccc2c(c1)C(C)(C)OB2O (stereo not given) ?
Solution: inactive

Exercise: I would be grateful if you could indicate the recorded call for Cc1cccc(C(=O)Nc2ccnc(N(C)C3CCN(CC(C)C)CC3)c2)c1 .
Solution: inactive

Exercise: Which outcome was assigned to CO[C@@H]1CN(c2ccc(C#CC3(O)CN4CCC3CC4)c(Cc3ccccc3)n2)C[C@H]1O (stereo not given in full) in this test?
Solution: inactive

Exercise: Tell me the recorded outcome of this test for Cc1nn(Cc2ccccc2)c(Cl)c1C(=O)NC1CCCCCC1 .
Solution: inactive

Exercise: Per the records of this test, what outcome belongs to CC1(C)OB(O)c2ccc(C3=NOC(c4cc(Cl)c(F)c(Cl)c4)(C(F)(F)F)C3)cc21 (stereo not given) ?
Solution: active

Exercise: Given Nc1c2c(nc3sc4c(c13)CCCC4)CCCC2 , state the outcome it received in this test.
Solution: active

Exercise: Just curious, what result did CC1COC(Cn2cncn2)(c2ccc(Oc3ccc(Cl)cc3)cc2Cl)O1 (stereo not given) get here?
Solution: inactive
